Please provide measured melting point for the entries that follow.

Q: I'd like to know its melting point. The compound in question is "O=C1CC(CN2C(=O)c3ccccc3C2=O)=Nc2ccccc2N1"
Result: 244 to 246 °C

Q: Repeat with "Cn1ncnc1COc1nc2c(nnn2-c2ccccc2)c2ccccc12"
Result: 188 to 190 °C

Q: Repeat with "Cc1nc2c(O)nc3ccccc3c2n1C"
Result: > 300 °C

Q: Repeat with "CCOC(=O)Cc1cccc(C(=O)c2ccc(Br)cc2)c1N"
Result: 107 to 109 °C

Q: Repeat with CCCC1(COC)CCCSc2cc(/C=C/c3ccc(C(=O)O)cc3)ccc21 (stereo not given)
Result: 169 to 170 °C
